Target: MMP-14 catalytic domain (Homo sapiens, UniProt P50281)
TEST READOUT: pIC50
Please express pIC50 as -log10 of the molar concentration.

Query: Lab request: please report pIC50 under test system MMP-14 catalytic domain (Homo sapiens, UniProt P50281) for Cc1cc(C(F)CCc2ccc(C(=O)O)cc2)cc(C(=O)NCc2cccc(C(F)(F)F)c2)n1 (centres unmarked) [Example 1]
Result: 4.25
